- TGT: T1, human amylin-3(a) receptor (human, UniProt P30988 25-474; O60896 24-148)
- T1 sequence (looked up) 1: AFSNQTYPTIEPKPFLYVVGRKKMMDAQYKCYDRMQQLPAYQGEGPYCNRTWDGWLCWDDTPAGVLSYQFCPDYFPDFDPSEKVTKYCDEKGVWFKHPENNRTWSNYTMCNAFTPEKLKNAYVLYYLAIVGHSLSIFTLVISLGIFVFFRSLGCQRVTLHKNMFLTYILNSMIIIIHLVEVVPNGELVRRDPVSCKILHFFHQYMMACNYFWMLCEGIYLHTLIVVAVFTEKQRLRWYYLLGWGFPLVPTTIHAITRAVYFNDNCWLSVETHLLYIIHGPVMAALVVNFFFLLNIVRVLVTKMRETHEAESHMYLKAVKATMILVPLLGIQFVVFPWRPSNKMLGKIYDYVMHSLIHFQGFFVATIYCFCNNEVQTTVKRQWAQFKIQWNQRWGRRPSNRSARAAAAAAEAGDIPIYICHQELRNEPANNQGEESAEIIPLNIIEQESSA
- T1 sequence (looked up) 2: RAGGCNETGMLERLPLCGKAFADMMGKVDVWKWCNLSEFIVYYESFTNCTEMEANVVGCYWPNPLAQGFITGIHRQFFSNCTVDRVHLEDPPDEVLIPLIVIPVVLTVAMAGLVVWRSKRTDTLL
- EXPERIMENTAL_DETAILS: cell-based or functional assay
Numbered stars: 1 amine (or outer) side, 2 acyl side, 3 side chain; on linkers, the order of the positions; unused ones are H or OH. Square brackets hold non-standard residues; d marks the D form. Side chains are listed from the residue outwards. * marks the point of attachment. C18 diacid = O=C(O)CCCCCCCCCCCCCCCCC(=O)*; C16 diacid = O=C(O)CCCCCCCCCCCCCCC(=O)*; γGlu = O=C(O)[C@H](CCC(=O)[*:2])N[*:1]; Chem. 28 = not defined here; AEEA = NCCOCCOCC(=O)O; Aib = CC(C)(N)C(=O)O
QUANTITY_NAME: hAMYR3 Potency, 1% HSA, EC50 [pM] (pM)

{"BINDER": "Compound 108 (reading uncertain) peptide: H[Aib]HGTFTSDYSILLEEQAAREFIEWLLAGGPSSGALQAPGQAPLASHLSTAQTARLSAELHK(Chem. 28)LATLPRTETGSGSP-NH2", "MEASUREMENT_UNITS": "pM", "RECORDED_RESULT": 60}
{"BINDER": "Compound 93 (peptide) peptide: H[Aib]HGTFTSDYSILLEEQAAREFIEWLLAGGPSSGAGQAPGQAPLASHLSTAQTQRLSAELHK([AEEA-AEEA-γGlu-C18 diacid])LATLPRTETGSGSP-NH2", "MEASUREMENT_UNITS": "pM", "RECORDED_RESULT": 66.4}
{"BINDER": "Compound 12 (peptide) peptide: H[Aib]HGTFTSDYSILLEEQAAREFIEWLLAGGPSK([AEEA-AEEA-γGlu-C16 diacid])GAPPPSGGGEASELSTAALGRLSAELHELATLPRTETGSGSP-NH2", "MEASUREMENT_UNITS": "pM", "RECORDED_RESULT": 55}

The measured values listed here are drawn from patent US20260174875A1.
